These data points were gathered from patent US8691753B2.

tgt: MMP-10h (Homo sapiens (Human))
Sequence (P09238 99-476): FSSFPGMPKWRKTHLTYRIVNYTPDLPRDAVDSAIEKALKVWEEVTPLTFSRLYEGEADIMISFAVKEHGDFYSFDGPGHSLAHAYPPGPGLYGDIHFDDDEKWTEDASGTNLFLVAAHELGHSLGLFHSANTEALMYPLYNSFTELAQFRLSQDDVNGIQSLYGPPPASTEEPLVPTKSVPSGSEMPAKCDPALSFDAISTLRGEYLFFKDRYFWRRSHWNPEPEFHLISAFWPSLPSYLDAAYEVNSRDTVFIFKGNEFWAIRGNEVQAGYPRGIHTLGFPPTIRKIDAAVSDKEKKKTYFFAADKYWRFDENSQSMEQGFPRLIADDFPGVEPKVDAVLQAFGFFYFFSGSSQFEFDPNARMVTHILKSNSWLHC
methodDescription: Inhibition constant (Ki) on MMP-10h
Assay type: biochemical
conditionContext: read-out: Ki MMP-10h; human MMP-10
endpointName: Ki

The measured Ki associated with NC(=O)[C@H](Cc1c[nH]cn1)NC(=O)[C@H](CCC(=O)O)NC(=O)CCc1ccc(-c2ccccc2)cc1 reads > 1000 nM

The measured Ki associated with NCCCC[C@H](NC(=O)[C@H](CCC(=O)O)NC(=O)CCc1ccc(-c2ccc(-c3ccccc3)cc2)cc1)C(N)=O reads 447 nM

The measured Ki associated with NC(=O)[C@H](CCC(=O)O)NC(=O)[C@H](CCC(=O)O)NC(=O)CCc1csc(-c2ccccc2)n1 reads > 5000 nM

The measured Ki associated with NC(=O)[C@H](CCC(=O)O)NC(=O)[C@H](CCC(=O)O)NC(=O)CCc1ccc(-c2cccc(O)c2)cc1 reads > 1000 nM

The measured Ki associated with NCCCC[C@H](NC(=O)[C@H](CCC(=O)O)NC(=O)CCc1ccc(-c2ccccc2)cc1)C(N)=O reads > 5000 nM

The measured Ki associated with NC(=O)[C@H](CCC(=O)O)NC(=O)[C@H](CCC(=O)O)NC(=O)CCc1ccc(-c2cc(Cl)cc(Cl)c2)cc1 reads > 1000 nM

The measured Ki associated with C[C@H](NC(=O)[C@H](CCC(=O)O)NC(=O)CCc1ccc(-c2ccc(-c3ccccc3)cc2)cc1)C(N)=O reads 130 nM

The measured Ki associated with C[C@H](NC(=O)CCc1ccc(-c2ccc(-c3ccccc3)cc2)cc1)C(=O)N[C@@H](CCC(=O)O)C(N)=O reads > 10000 nM

The measured Ki associated with NC(=O)[C@H](CCC(=O)O)NC(=O)CCc1cc(-c2ccc(-c3cccc(Cl)c3)cc2)no1 reads 122 nM

The measured Ki associated with NC(=O)[C@H](Cc1ccc(O)cc1)NC(=O)[C@H](CCC(=O)O)NC(=O)CCc1ccc(-c2ccc(-c3ccccc3)cc2)cc1 reads 119 nM

The measured Ki associated with NC(=O)[C@H](CCC(=O)O)NC(=O)[C@H](CCC(=O)O)NC(=O)CCc1ccc(Oc2ccccc2)cc1 reads > 1000 nM

The measured Ki associated with NC(=O)[C@H](CCC(=O)O)NC(=O)[C@H](CC(=O)O)NC(=O)CCc1cc(-c2ccc(-c3cccc(Cl)c3)cc2)no1 reads 520 nM

The measured Ki associated with Cc1ccc(-c2ccc(CCC(=O)N[C@@H](CCC(=O)O)C(=O)N[C@@H](CCC(=O)O)C(N)=O)cc2)s1 reads 353 nM

The measured Ki associated with NC(=O)[C@H](CC(=O)O)NC(=O)[C@H](CC(=O)O)NC(=O)CCc1cc(-c2ccc(-c3cccc(Cl)c3)cc2)no1 reads 93 nM

The measured Ki associated with NC(=O)[C@H](CCC(=O)O)NC(=O)[C@H](CCC(=O)O)NC(=O)CCc1ccc(-c2ncccn2)cc1 reads > 5000 nM

The measured Ki associated with NC(=O)[C@H](CCC(=O)O)NC(=O)[C@H](CCC(=O)O)NC(=O)CCc1ccc(-c2cccc(Cl)c2)cc1 reads > 5000 nM

The measured Ki associated with CC(C)C[C@H](NC(=O)[C@H](CCC(=O)O)NC(=O)CCc1ccc(-c2cccs2)cc1)C(N)=O reads > 1000 nM

The measured Ki associated with Cc1csc(-c2ccc(CCC(=O)N[C@@H](CCC(=O)O)C(=O)N[C@@H](CCC(=O)O)C(N)=O)cc2)c1 reads > 1000 nM

The measured Ki associated with Cc1nc(-c2ccc(CCC(=O)N[C@@H](CCC(=O)O)C(=O)N[C@@H](CCC(=O)O)C(N)=O)cc2)no1 reads > 1000 nM

The measured Ki associated with NC(=O)[C@H](Cc1ccc(O)cc1)NC(=O)[C@H](CCC(=O)O)NC(=O)CCc1ccc(-c2ccccc2)cc1 reads > 1000 nM

The measured Ki associated with NC(=O)[C@H](CC(=O)O)NC(=O)[C@H](CCC(=O)O)NC(=O)CCc1ccc(-c2cccs2)cc1 reads 435 nM

The measured Ki associated with NC(=O)[C@H](CO)NC(=O)[C@H](CCC(=O)O)NC(=O)CCc1ccc(-c2ccccc2)cc1 reads > 1000 nM

The measured Ki associated with NC(=O)[C@H](CCCC(=O)O)NC(=O)[C@H](CCC(=O)O)NC(=O)CCc1ccc(-c2cc(-c3ccccc3)cs2)cc1 reads 845 nM

The measured Ki associated with COc1cccc(-c2ccc(CCC(=O)N[C@@H](CCC(=O)O)C(=O)N[C@@H](CCC(=O)O)C(N)=O)cc2)c1 reads > 1000 nM

The measured Ki associated with O=C(O)CC[C@H](NC(=O)CCc1ccc(-c2ccc(-c3ccccc3)cc2)cc1)C(=O)N1CCC[C@@H](CC(=O)O)C1 reads 421 nM

The measured Ki associated with Cc1ccsc1-c1ccc(CCC(=O)N[C@@H](CCC(=O)O)C(=O)N[C@@H](CCC(=O)O)C(N)=O)cc1 reads > 1000 nM

The measured Ki associated with O=C(O)CC[C@H](NC(=O)CCc1ccc(-c2ccccc2)cc1)C(=O)N1CCC[C@@H](CC(=O)O)C1 reads > 10000 nM
